# target_of_assay: UniProtKB P11712
# Sequence (P11712 whole entry): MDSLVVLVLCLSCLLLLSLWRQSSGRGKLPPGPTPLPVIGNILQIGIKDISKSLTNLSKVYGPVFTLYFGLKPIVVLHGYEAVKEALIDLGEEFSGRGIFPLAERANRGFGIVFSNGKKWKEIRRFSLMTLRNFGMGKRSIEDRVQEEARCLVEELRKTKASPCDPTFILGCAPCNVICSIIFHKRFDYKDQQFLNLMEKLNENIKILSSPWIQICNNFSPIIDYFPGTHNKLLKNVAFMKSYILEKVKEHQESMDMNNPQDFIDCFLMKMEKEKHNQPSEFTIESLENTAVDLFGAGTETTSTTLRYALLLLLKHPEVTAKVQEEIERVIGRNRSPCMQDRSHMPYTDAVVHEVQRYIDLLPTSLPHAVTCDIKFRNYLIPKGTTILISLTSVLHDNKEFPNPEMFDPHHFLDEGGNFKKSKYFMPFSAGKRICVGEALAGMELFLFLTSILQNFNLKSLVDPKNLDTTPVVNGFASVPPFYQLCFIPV
Below, each of the compounds is paired with its reported AC50 value.
Respond numerically; units are µM and should not be typed.

{"columns": ["compound", "target_of_assay", "measure", "unit_string", "val"],
 "data": [
  ["O=C(NCc1ncc(C(F)(F)F)cc1Cl)c1c(Cl)cccc1Cl [Fluopicolide]", "UniProtKB P11712", "AC50", "µM", 4.13],
  ["C=C(C)C(=O)OCCOc1ccccc1", "UniProtKB P11712", "AC50", "µM", 38.6],
  ["O=[N+]([O-])c1ccc(Nc2ccc(Nc3ccccc3)c(S(=O)(=O)[O-])c2)c([N+](=O)[O-])c1.[Na+]", "UniProtKB P11712", "AC50", "µM", 34.3],
  ["CCCCCCCCS(=O)(=O)Cl [1-Octanesulfonyl chloride]", "UniProtKB P11712", "AC50", "µM", 28.7],
  ["c1ccc(CCCc2ccccn2)cc1", "UniProtKB P11712", "AC50", "µM", 33.1]
]}

Data request: Data request, read-out AC50, for `CCCCCCCCCCCCCC[N+](C)(C)Cc1ccccc1.O.O.[Cl-]`
Data returned: 40.7

Data request: Again, but for `CCCCCCCCCCCSCC(=O)O`
Data returned: 45.2

Data request: Again, but for `Nc1ccccc1S(=O)(=O)c1ccccc1`
Data returned: 8.25

Data request: Again, but for `CC(C)c1ccc2sc3ccccc3c(=O)c2c1`
Data returned: 15.6

Data request: Again, but for C[C@]12CC[C@H]3[C@@H](CCC4=CC(=O)CC[C@@H]43)[C@@H]1CC[C@@H]2OC(=O)CCC1CCCCC1 [Nandrolone cyclohexylpropionate]
Data returned: 17.4

Data request: Again, but for CCOC(=O)c1ccc(N(C)C)cc1 [Parbenate]
Data returned: 31.9
